- Study target: UniProtKB P04150
- Assay: In Vitro GR Luciferase Reporter Assay (antagonist assay)
- Measurement setup: CHO-K1-GR-MMTV-Luc reporter cells, 10 nM Dexamethasone, 18-24 hours
pIC50: −log10 of the molar value.
Parameter: pIC50

Compound structure string | Reported value
CC#C[C@]1(O)CC[C@H]2[C@@H]3CCC4=CC(=O)CCC4=C3[C@@H](c3cccc(C(C)(C)C)c3)C[C@@]21C | < 7.00
CC#C[C@]1(O)CC[C@H]2[C@@H]3CCC4=CC(=O)CCC4=C3[C@@H](c3cccc(OC(C)C)c3)C[C@@]21C | < 7.00
CC#C[C@]1(O)CC[C@H]2[C@@H]3CCC4=CC(=O)CCC4=C3[C@@H](c3cc(F)c(OC)c(F)c3)C[C@@]21C | > 7.00

Kindly note the recorded pIC50 for `CC#C[C@]1(OC)CC[C@H]2[C@@H]3CCC4=CC(=O)CCC4=C3[C@@H](c3cc(F)c(C)c(F)c3)C[C@@]21C` , which is < 7.00

---

Examples of compounds with documented pIC50 follow.
- Study target: GR (Homo sapiens, UniProt P04150)
- Assay: In Vitro GR Luciferase Reporter Assay (antagonist assay)
- Measurement setup: CHO-K1-GR-MMTV-Luc reporter cells, 10 nM Dexamethasone, 18-24 hours
pIC50: −log10 of the molar value.

Compound | Study target | pIC50
CC#C[C@]1(O)CC[C@H]2[C@@H]3CCC4=CC(=O)CCC4=C3[C@@H](c3ccc(Cl)c(C4CC4)c3)C[C@@]21C | GR (Homo sapiens, UniProt P04150) | < 7.00
CC#C[C@]1(O)CC[C@H]2[C@@H]3CCC4=CC(=O)CCC4=C3[C@@H](c3cc(F)cc(F)c3)C[C@@]21C [drawing 196] | GR (Homo sapiens, UniProt P04150) | > 7.00
[2H]C([2H])([2H])C#C[C@]1(O)CC[C@H]2[C@@H]3CCC4=CC(=O)CCC4=C3[C@@H](c3ccc4c(c3)OCCO4)C[C@@]21C | GR (Homo sapiens, UniProt P04150) | > 7.00
CC#C[C@]1(O)[C@H](CC)C[C@H]2[C@@H]3CCC4=CC(=O)CCC4=C3[C@@H](c3ccccc3)C[C@@]21C | GR (Homo sapiens, UniProt P04150) | < 7.00
CC#C[C@]1(O)C2(CC2)C[C@H]2[C@@H]3CCC4=CC(=O)CCC4=C3[C@@H](c3ccc(S(=O)(=O)N(C)C)cc3)C[C@@]21C | GR (Homo sapiens, UniProt P04150) | > 7.00
CC#C[C@]1(O)CC[C@H]2[C@@H]3CCC4=CC(=O)CCC4=C3[C@@H](c3cccc(C(C)C)c3)C[C@@]21C [drawing 185] | GR (Homo sapiens, UniProt P04150) | > 7.00

Kindly note the recorded pIC50 for `CC#C[C@]1(O)[C@H](C)C[C@H]2[C@@H]3CCC4=CC(=O)CCC4=C3[C@@H](c3c(F)cc(N4CCC4)cc3F)C[C@@]21C` , which is > 7.00

---

- Study target: GR (Homo sapiens, UniProt P04150)
- Sequence (P04150 1-777): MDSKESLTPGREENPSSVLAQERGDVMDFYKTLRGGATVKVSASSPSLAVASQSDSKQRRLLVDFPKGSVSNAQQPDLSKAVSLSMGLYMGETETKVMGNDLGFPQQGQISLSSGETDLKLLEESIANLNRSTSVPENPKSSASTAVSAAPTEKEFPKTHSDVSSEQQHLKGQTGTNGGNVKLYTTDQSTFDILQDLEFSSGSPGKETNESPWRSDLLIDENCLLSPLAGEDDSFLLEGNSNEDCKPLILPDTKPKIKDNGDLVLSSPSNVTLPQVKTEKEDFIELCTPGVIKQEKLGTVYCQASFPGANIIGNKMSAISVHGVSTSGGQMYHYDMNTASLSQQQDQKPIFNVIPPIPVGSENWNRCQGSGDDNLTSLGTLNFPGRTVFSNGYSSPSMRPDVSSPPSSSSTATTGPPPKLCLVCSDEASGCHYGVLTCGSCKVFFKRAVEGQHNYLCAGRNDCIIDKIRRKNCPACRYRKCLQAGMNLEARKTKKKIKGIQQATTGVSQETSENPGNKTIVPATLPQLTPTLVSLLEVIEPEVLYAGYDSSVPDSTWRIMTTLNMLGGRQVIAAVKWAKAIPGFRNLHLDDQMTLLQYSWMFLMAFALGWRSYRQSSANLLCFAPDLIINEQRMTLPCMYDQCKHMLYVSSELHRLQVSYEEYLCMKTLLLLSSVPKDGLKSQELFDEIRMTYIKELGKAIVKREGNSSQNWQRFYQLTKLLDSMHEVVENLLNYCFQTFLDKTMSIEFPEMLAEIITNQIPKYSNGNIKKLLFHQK
- Assay: In Vitro GR Luciferase Reporter Assay (antagonist assay)
- Measurement setup: CHO-K1-GR-MMTV-Luc reporter cells, 10 nM Dexamethasone, 18-24 hours
pIC50: −log10 of the molar value.
Parameter: pIC50

Example cases with answers are listed next.
Compound | Study target | pIC50
CC#C[C@]1(O)CC[C@H]2[C@@H]3CCC4=CC(=O)CCC4=C3[C@@H](c3c(F)cc(OC)cc3F)C[C@@]21C | GR (Homo sapiens, UniProt P04150) | > 7.00
CC#C[C@]1(O)CC[C@H]2[C@@H]3CCC4=CC(=O)CCC4=C3[C@@H](c3ccc(S(=O)(=O)N4CCCCC4)cc3)C[C@@]21C [drawing 181] | GR (Homo sapiens, UniProt P04150) | > 7.00

Measured pIC50 (GR (Homo sapiens, UniProt P04150)), entry `CC#C[C@]1(O)[C@H](C)C[C@H]2[C@@H]3CCC4=CC(=O)CCC4=C3[C@@H](c3c(F)cc(N(C)C)cc3F)C[C@@]21C` : > 7.00

Measured pIC50 (GR (Homo sapiens, UniProt P04150)), entry `CC#C[C@]1(O)CC[C@H]2[C@@H]3CCC4=CC(=O)CCC4=C3[C@@H](c3ccc(C(C)C)c(OC)c3)C[C@@]21C` : > 7.00

Measured pIC50 (GR (Homo sapiens, UniProt P04150)), entry `CC#C[C@]1(O)[C@H](C)C[C@H]2[C@@H]3CCC4=CC(=O)CCC4=C3[C@@H](c3ccc(C)c(F)c3)C[C@@]21C` : > 7.00

Measured pIC50 (GR (Homo sapiens, UniProt P04150)), entry `CC#C[C@]1(O)CC[C@H]2[C@@H]3CCC4=CC(=O)CCC4=C3[C@@H](c3ccc(F)c(OC)c3)C[C@@]21C` : < 7.00

Measured pIC50 (GR (Homo sapiens, UniProt P04150)), entry `CC#C[C@]1(O)CC[C@H]2[C@@H]3CCC4=CC(=O)CCC4=C3[C@@H](c3ccc(C)c(N(C)C)c3)C[C@@]21C` : > 7.00

---

Examples of compounds with documented IC50 follow.
- Study target: GR (Homo sapiens)
- Assay: In Vitro GR Luciferase Reporter Assay (antagonist assay)
- Measurement setup: CHO-K1-GR-MMTV-Luc reporter cells, 10 nM Dexamethasone, 18-24 hours

Compound | Study target | IC50
CC#C[C@]1(O)CC[C@H]2[C@@H]3CCC4=CC(=O)CCC4=C3[C@@H](c3cccc(C(C)O)c3)C[C@@]21C (stereo partly drawn) | GR (Homo sapiens) | > 100 nM

Measured IC50 (GR (Homo sapiens)), entry CC#C[C@]1(O)CC[C@H]2[C@@H]3CCC4=CC(=O)CCC4=C3[C@@H](c3cccc(OCC)c3)C[C@@]21C [drawing 186] : < 100 nM

Measured IC50 (GR (Homo sapiens)), entry CC#C[C@]1(O)[C@H](C)C[C@H]2[C@@H]3CCC4=CC(=O)CCC4=C3[C@@H](c3ccc(S(=O)(=O)N4CCCCC4)cc3)C[C@@]21C [drawing 226] : < 100 nM

Measured IC50 (GR (Homo sapiens)), entry `CC#C[C@]1(O)CC[C@H]2[C@@H]3CCC4=CC(=O)CCC4=C3[C@@H](c3cc(F)c(N(C)C)c(F)c3)C[C@@]21C` : < 100 nM

Measured IC50 (GR (Homo sapiens)), entry `CC#C[C@]1(O)[C@H](C)C[C@H]2[C@@H]3CCC4=CC(=O)CCC4=C3[C@@H](c3c(F)cc(N4CCOCC4)cc3F)C[C@@]21C` : < 100 nM

Measured IC50 (GR (Homo sapiens)), entry `CC#C[C@]1(O)CC[C@H]2[C@@H]3CCC4=CC(=O)CCC4=C3[C@@H](c3c(F)cc(CC)cc3F)C[C@@]21C` : < 100 nM

---

- Study target: GR (Homo sapiens)
- Sequence (P04150 1-777): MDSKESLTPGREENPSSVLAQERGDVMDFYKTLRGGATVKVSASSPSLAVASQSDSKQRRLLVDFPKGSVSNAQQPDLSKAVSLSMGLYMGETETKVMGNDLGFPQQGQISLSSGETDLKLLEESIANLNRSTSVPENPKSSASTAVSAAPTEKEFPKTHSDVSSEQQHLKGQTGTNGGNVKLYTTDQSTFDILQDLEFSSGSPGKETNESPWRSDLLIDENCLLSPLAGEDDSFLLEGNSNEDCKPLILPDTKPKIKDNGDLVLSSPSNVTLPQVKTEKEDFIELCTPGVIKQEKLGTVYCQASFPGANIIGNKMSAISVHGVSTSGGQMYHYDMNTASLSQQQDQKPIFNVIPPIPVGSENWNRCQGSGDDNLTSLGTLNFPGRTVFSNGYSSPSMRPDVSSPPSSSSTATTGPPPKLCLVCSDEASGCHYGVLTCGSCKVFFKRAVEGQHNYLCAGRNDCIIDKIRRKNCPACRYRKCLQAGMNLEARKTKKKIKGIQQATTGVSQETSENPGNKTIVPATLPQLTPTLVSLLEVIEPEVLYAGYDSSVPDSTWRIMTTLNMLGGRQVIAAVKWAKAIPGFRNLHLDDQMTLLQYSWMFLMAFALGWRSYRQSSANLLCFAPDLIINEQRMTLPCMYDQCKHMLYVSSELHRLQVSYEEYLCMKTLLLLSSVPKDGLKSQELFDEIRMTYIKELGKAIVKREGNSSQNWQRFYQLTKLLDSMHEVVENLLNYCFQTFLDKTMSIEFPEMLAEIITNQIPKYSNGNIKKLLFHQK
- Assay: In Vitro GR Luciferase Reporter Assay (antagonist assay)
- Measurement setup: CHO-K1-GR-MMTV-Luc reporter cells, 10 nM Dexamethasone, 18-24 hours
pIC50: −log10 of the molar value.
Examples of compounds with documented pIC50 follow.

Example cases with answers are listed next.
Compound | pIC50
CC#C[C@]1(O)CC[C@H]2[C@@H]3CCC4=CC(=O)CCC4=C3[C@@H](c3c(F)cc(N(C)CC)cc3F)C[C@@]21C | > 7.00
CC#C[C@]1(O)CC[C@H]2[C@@H]3CCC4=CC(=O)CCC4=C3[C@@H](c3ccc4c(c3)OCCO4)C[C@@]21C [drawing 210] | > 7.00
CC#C[C@]1(O)C2(CC2)C[C@H]2[C@@H]3CCC4=CC(=O)CCC4=C3[C@@H](c3c(F)cc(N(C)C)cc3F)C[C@@]21C | > 7.00
CC#C[C@]1(OC(=O)CC)CC[C@H]2[C@@H]3CCC4=CC(=O)CCC4=C3[C@@H](c3cc(F)c(C)c(F)c3)C[C@@]21C | < 7.00
CC#C[C@]1(O)CC[C@H]2[C@@H]3CCC4=CC(=O)CCC4=C3[C@@H](c3c(F)cc(N4CCCC4)cc3F)C[C@@]21C | > 7.00

Below: the item to evaluate.
Measured pIC50 (GR (Homo sapiens)), entry CC#C[C@]1(O)CC[C@H]2[C@@H]3CCC4=CC(=O)CCC4=C3[C@@H](c3ccc(N(C)C)c(C(C)C)c3)C[C@@]21C [drawing 203] : < 7.00
